- procedure.details: Urinary excretion
- Type: in vivo
- condition.description: rat; rats; oral administration of 100 mg/kg; urine 0 to 6 and 6 to 24 hours; bioassay; read-out: Urinary recovery in 24 hours (%)
experimental.readout: dose excreted at 24 h (%)
Form entry: value (%) — number only.

Prompt: Entry O=C(O)CO/N=C(\C(=O)NC1C(=O)N2C(C(=O)O)=CCSC12)c1cscn1 (stereo not shown) : reported dose excreted at 24 h = ?
Completion: 43.5
